assay: Apparent half life in Sprague-Dawley rat at 28 mg/kg, po measured up to 24 hrs; type: ADME, organism-based; conditions: in vivo, read-out: t1/2(app) (converted)
readout: half-life (h)
Please state the figure in h; there is no need to write the unit.

Input Cc1cc(C(C)NC(=O)c2[nH]cc(Cc3ccc(C(F)(F)F)nc3)c2C)no1 (stereo in doubt; form 1) . Output half-life: 4.1

----------
experiment: Oral bioavailability in Sprague-Dawley rat at 17 mg/kg measured up to 24 hrs; type: ADME, organism-based; conditions: in vivo
readout: bioavailability

The reported value for Cc1c(C2(c3ccc(C(F)(F)F)nc3)CC2)c[nH]c1C(=O)NC(C)c1nc[nH]n1 (stereo in doubt; form 1) in terms of bioavailability is 110%
